The entries below are paired with their reported TGI.
system: UACC-62 melanoma; experiment: NCI tumour cell line growth inhibition, 48 h

{"compound": "CC(=O)Oc1c2oc3ccc(Cl)cc3c(=O)c2c(O)c2ccsc12", "target-under-test": "UACC-62 melanoma", "TGI": "> 100 µM"}
{"compound": "Clc1nc(Cl)c2ncn(C/C=C/COc3cccc(OC/C=C/Cn4cnc5c(Cl)nc(Cl)nc54)c3)c2n1", "target-under-test": "UACC-62 melanoma", "TGI": "> 100 µM"}

Attention now turns to another entry.
Input COc1cc(C(C)c2cc3c(cc2OCCO)OCO3)cc(OC)c1OC (stereo not drawn) . Output TGI: > 100 µM

---

The entries below are paired with their reported TGI.
test system: NCI/ADR-RES ovarian; test: NCI tumour cell line growth inhibition, 48 h

Below, each entry is followed by its recorded TGI result.
{"molecule": "COc1ccc(-c2cc(-c3ccc(Nc4ccnc5cc(Cl)ccc45)cc3)[nH]c(=O)c2C#N)c2ccccc12", "measured-property": "TGI", "recorded-value": "> 100 µM"}
{"molecule": "CC1(C)CC(=O)c2c(nc3ccc4ccccc4c3c2-c2ccc(NC(=O)CCCCCCCCC(=O)Nc3ccc(-c4c5c(nc6ccc7ccccc7c46)CC(C)(C)CC5=O)cc3)cc2)C1", "measured-property": "TGI", "recorded-value": "> 100 µM"}
{"molecule": "CC1(C)C2C=CC1(C)C1(CC2)OCCO1 (stereo not given)", "measured-property": "TGI", "recorded-value": "> 100 µM"}
{"molecule": "C/C=C(\\C)C(=O)O[C@H]1C=CC(=O)O[C@@H]1CC[C@H](O)[C@H](C)O", "measured-property": "TGI", "recorded-value": "> 100 µM"}
{"molecule": "CC[N+]1(C)CCC(O)(c2ccc(Cl)c(Cl)c2)C(C(=O)c2ccc(Cl)c(Cl)c2)C1 (stereo not given)", "measured-property": "TGI", "recorded-value": "> 10 µM"}
{"molecule": "COc1ccccc1Cc1nc(-c2ccccc2)nn(C2OC(COC(C)=O)C(OC(C)=O)C(OC(C)=O)C2OC(C)=O)c1=S (stereo not given)", "measured-property": "TGI", "recorded-value": "> 100 µM"}
{"molecule": "O=C1c2c(O)cccc2C(C2OC(CO)C(O)C(O)C2O)c2cc(CO)cc(O)c21 (stereo not given)", "measured-property": "TGI", "recorded-value": "> 100 µM"}
{"molecule": "Oc1c([Si](c2ccccc2)(c2ccccc2)c2ccccc2)cc2ccccc2c1-c1c(O)c([Si](c2ccccc2)(c2ccccc2)c2ccccc2)cc2ccccc12", "measured-property": "TGI", "recorded-value": "> 100 µM"}

O=C(O)c1nc(-c2ccccc2)[nH]c1C(=O)O tested on NCI/ADR-RES ovarian gave TGI: > 82.8 µM

Nc1[nH]nc2nc(-c3cccs3)cc(C(F)(F)F)c12 tested on NCI/ADR-RES ovarian gave TGI: > 25 µM

---

tested on: MOLT-4 leukemia; assay: NCI tumour cell line growth inhibition, 48 h
The entries below are paired with their reported TGI.
Quick note: give the figure in µM, leave out the unit.

Below, each entry is followed by its recorded TGI result.
{"compound": "COC(=O)C1=C(c2cc(OC)c(OC)c(OC)c2)OC(c2ccc(OC)c(OC)c2)C1 (configuration not stated)", "recorded-value": 51.2}
{"compound": "S=C1SCN(Cc2ccco2)CN1c1ccc(Br)cc1", "recorded-value": 47.4}
{"compound": "CC1CC/C(=C\\c2ccc(Cl)cc2)C2OC(N)=C(C#N)C(c3ccc(Cl)cc3)=C12 (configuration not stated)", "recorded-value": 24.2}
{"compound": "C#CCSC(C=C=C)P(=O)(OC(C)C)OC(C)C (configuration not stated)", "recorded-value": 65.2}
{"compound": "OC(CCNCc1ccccc1)c1ccc2ccccc2c1 (configuration not stated)", "recorded-value": 84.8}

Attention now turns to another entry.
Input O=C(Nc1ccc(Cl)cc1)Nc1ccc(Nc2nncc3ccccc23)cc1 . Output TGI: 6.36
